# System: Ipomoea hederacea (IPOHE)
# protocol details: Post-emergence Test, Ipomoea hederacea (IPOHE)
# Assay type: in vivo
# Design: key: 5=81-100%, 4=61-80%, 3=41-60%, 2=21-40%, 1=0-20% damage
# applied conditions: 1000 g/ha, evaluated after 13 days
endpoint name: percentage damage caused to the plant, IPOHE (five-point scale)

Lookup: May I ask what percentage damage caused to the plant, IPOHE (five-point scale) has been recorded for "CCCOc1ccn(Cc2cc(=O)c(C(=O)O)c(-c3ccc(Cl)c(Cl)c3)n2CC)n1" ?
Found: 3 (3=41-60%)

Lookup: May I ask what percentage damage caused to the plant, IPOHE (five-point scale) has been recorded for "CCn1c(Cn2nc(C(F)(F)F)cc2O)cc(=O)c(C(=O)O)c1-c1ccc(Cl)c(Cl)c1" ?
Found: 1 (1=0-20%)

Lookup: May I ask what percentage damage caused to the plant, IPOHE (five-point scale) has been recorded for "CCn1c(Cn2ccc(C(F)(F)F)n2)cc(=O)c(C(=O)O)c1-c1ccc(F)c(Cl)c1" ?
Found: 2 (2=21-40%)

Lookup: May I ask what percentage damage caused to the plant, IPOHE (five-point scale) has been recorded for "CCOC(=O)c1nn(Cc2cc(=O)c(C(=O)O)c(-c3ccc(Cl)c(Cl)c3)n2CC)cc1C" ?
Found: 2 (2=21-40%)
